Experiment: Volume of distribution at steady state in Sprague-Dawley rat at 2 mg/kg, iv and 6 mg/kg, po
Assay type: ADME, organism-based
Conditions: in vivo, read-out: Vdss
parameter: Vd (L/kg)
Provide only the numeric value, understood in L/kg.

Prompt: Output Vd of COCCCOc1cc(C(=O)N(C[C@@H]2CNC[C@H]2NS(=O)(=O)Cc2ccccc2)C(C)C)ccc1OC
Response: 13

====

Assay: AUC (0 to 24 hrs) in Sprague-Dawley rat at 6 mg/kg, po
Type: ADME, organism-based
Parameters: time < 24 hr, dose 6 mg/kg, route oral
Conditions: plasma
parameter: AUC(0-t) at 24 h
Phrase the answer as number then unit, nothing more needed.

Prompt: Output AUC(0-t) at 24 h of COCCCOc1cc(C(=O)N(C[C@@H]2CNC[C@H]2NS(=O)(=O)Cc2ccccc2)C(C)C)ccc1OC
Response: 0.068 µM·h
